# Test system: LG0567-F671-PDC KRAS tumor spheroid viability
# testSummary: Anticancer human tumor LG0567-F671-PDC patient-derived lung adenocarcinoma cell line growth inhibition [KRAS2]
# conditionsUsed: second compound 3.16 µM; first compound 0.0316 µM; active compounds read low; spheroids with HUVEC and MSC
assayEndpoint: viability, T/C (%)
Express the result in % but write the number alone.

These solved cases illustrate the format of a correct answer.
molecule	unitsLabel	viability, T/C
CCN1CCN(Cc2ccc(Nc3ncc(F)c(-c4cc(F)c5nc(C)n(C(C)C)c5c4)n3)nc2)CC1 + COc1cc2nc(C)nc(NC(C)c3cc(N)cc(C(F)(F)F)c3)c2cc1OC1CCOC1	%	34.7
COC(=O)c1ccc2c(C(=Nc3ccc(N(C)C(=O)CN4CCN(C)CC4)cc3)c3ccccc3)c(O)[nH]c2c1 + CC1OCC2(CCN(c3cnc(Sc4ccnc(N)c4Cl)c(N)n3)CC2)C1N	%	19.5
CCNC(=O)CC1N=C(c2ccc(Cl)cc2)c2cc(OC)ccc2-n2c(C)nnc21 (stereo not given) + CNCc1ccccc1-c1csc(C(C)Nc2nc(C)nc3cc(OC)c(OC)cc23)c1	%	72.3
Cn1nccc1Nc1nccc(-c2cc3c(s2)C(C)(C)N(CCN2CCOCC2)C3=O)n1 + COc1cc2nc(C)nc(NC(C)c3cc(N)cc(C(F)(F)F)c3)c2cc1OC1CCOC1	%	71.1
CCN1CCN(Cc2ccc(Nc3ncc(F)c(-c4cc(F)c5nc(C)n(C(C)C)c5c4)n3)nc2)CC1 + C=CC(=O)N1CCN(c2nc(=O)n(-c3c(C)ccnc3C(C)C)c3nc(-c4c(O)cccc4F)c(F)cc23)C(C)C1	%	18.6

Lab note: next molecule to report on.
Given CN(C)C/C=C/C(=O)Nc1cc2c(Nc3ccc(F)c(Cl)c3)ncnc2cc1O[C@H]1CCOC1 + COc1cc2nc(C)nc(NC(C)c3cc(N)cc(C(F)(F)F)c3)c2cc1OC1CCOC1 , state its recorded viability, T/C. 29.8

###

# Test system: LG0567-F671-PDC KRAS tumor spheroid viability
# testSummary: Anticancer human tumor LG0567-F671-PDC cell line growth inhibition [KRAS2];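 note: drug exposure lasted seven days after spheroids formed for three days; 100% = DMSO vehicle control viability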
# conditionsUsed: second compound 0.0316 µM; first compound 0.316 µM; active compounds read low; spheroids with HUVEC and MSC
List of viability, T/C values.

These solved cases illustrate the format of a correct answer.
compound	target	viability, T/C
CC1(C)CCC(CN2CCN(c3ccc(C(=O)NS(=O)(=O)c4ccc(NCC5CCOCC5)c([N+](=O)[O-])c4)c(Oc4cnc5[nH]ccc5c4)c3)CC2)=C(c2ccc(Cl)cc2)C1 + C=CC(=O)N1CCN(c2nc(OCC3CCCN3C)nc3c2CCN(c2cccc4cccc(C)c24)C3)CC1CC#N	LG0567-F671-PDC KRAS tumor spheroid viability	35%
CC1OCC2(CCN(c3cnc(Sc4ccnc(N)c4Cl)c(N)n3)CC2)C1N (centres undefined) + C=CC(=O)N1CCN(c2nc(OCC3CCCN3C)nc3c2CCN(c2cccc4cccc(C)c24)C3)CC1CC#N	LG0567-F671-PDC KRAS tumor spheroid viability	16.3%
CC(=O)OC12COC1CC(O)C1(C)C(=O)C(O)C3=C(C)C(OC(=O)C(O)C(NC(=O)OC(C)(C)C)c4ccccc4)CC(O)(C(OC(=O)c4ccccc4)C21)C3(C)C (centres undefined) + C=CC(=O)N1CCN(c2nc(OCC3CCCN3C)nc3c2CCN(c2cccc4cccc(C)c24)C3)CC1CC#N	LG0567-F671-PDC KRAS tumor spheroid viability	21.9%

Lab note: next compound to report on.
Given O=C(c1cc(Cc2n[nH]c(=O)c3ccccc23)ccc1F)N1CCN(C(=O)C2CC2)CC1 + C=CC(=O)N1CCN(c2nc(OCC3CCCN3C)nc3c2CCN(c2cccc4cccc(C)c24)C3)CC1CC#N , state its recorded viability, T/C. 89.6%

Where do these numbers come from? They come from PubChem BioAssay AID1963856.
